- TARGET DESC: Myt1 kinase (recombinant PMYT-1) (Homo sapiens, UniProt Q99640)
- Construct: full length PMYT-1 was expressed by baculovirus in insect cells; purchased Invitrogen A30984; host or cells: insect cells (baculovirus)
- TEST DESCRIPTION: Myt1 kinase binding assay (LanthaScreen Eu Kinase Binding Assay)
- REPORTED CONDITIONS: 3 nM tracer 178, 2.5 nM PMYT-1, 1 nM Eu-labeled antibody; read-out: Myt1 kinase Binding IC50
# IC50 annotations

Consider the reported IC50 for these molecules:
# MOLECULE, TARGET DESC, IC50
data = [
    ("C=CCn1c(=O)c2cnc(Nc3ccc4c(cnn4C)c3)nc2n1-c1ccnc(OC2CCN(C)CC2)n1 [Compound 279]", "Myt1 kinase (recombinant PMYT-1) (Homo sapiens, UniProt Q99640)", "20 to 100 nM"),
    ("[2H]C([2H])([2H])N1CCC(Oc2nccc(-n3c4nc(Nc5ccc6c(cnn6C)c5)ncc4c(=O)n3CC=C)n2)CC1 [Compound 383]", "Myt1 kinase (recombinant PMYT-1) (Homo sapiens, UniProt Q99640)", "20 to 100 nM"),
    ("C=CCn1c(=O)c2cnc(Nc3ccc(C#N)c(C)c3)nc2n1-c1cccc(NC2CCNCC2)n1 [Compound 134]", "Myt1 kinase (recombinant PMYT-1) (Homo sapiens, UniProt Q99640)", "100 to 500 nM"),
    ("C=CCn1c(=O)c2cnc(Nc3ccccc3)nc2n1-c1cccc(NC2CCNCC2)n1 [Compound 123]", "Myt1 kinase (recombinant PMYT-1) (Homo sapiens, UniProt Q99640)", "100 to 500 nM"),
]

Using Myt1 kinase (recombinant PMYT-1) (Homo sapiens, UniProt Q99640) as the test system, report measured IC50 of C=CCn1c(=O)c2cnc(Nc3ccc(OC)c(C)c3)nc2n1-c1cccc(NC2CCNCC2)n1 [Compound 127] .
100 to 500 nM

Using Myt1 kinase (recombinant PMYT-1) (Homo sapiens, UniProt Q99640) as the test system, report measured IC50 of CCn1c(=O)c2cnc(Nc3ccc(C#N)cc3)nc2n1-c1cccc(OC2CCN(C)CC2)n1 [Compound 310] .
20 to 100 nM

Using Myt1 kinase (recombinant PMYT-1) (Homo sapiens, UniProt Q99640) as the test system, report measured IC50 of C=CCn1c(=O)c2cnc(Nc3ccc(OCC)cc3)nc2n1-c1cccc(OC2CCN(C)CC2)n1 [Compound 255] .
< 20 nM

* * *

- TARGET DESC: Myt1 kinase (recombinant PMYT-1) (Homo sapiens)
- Construct: full length PMYT-1 was expressed by baculovirus in insect cells; purchased Invitrogen A30984; host or cells: insect cells (baculovirus)
- Sequence (Q99640 1-499): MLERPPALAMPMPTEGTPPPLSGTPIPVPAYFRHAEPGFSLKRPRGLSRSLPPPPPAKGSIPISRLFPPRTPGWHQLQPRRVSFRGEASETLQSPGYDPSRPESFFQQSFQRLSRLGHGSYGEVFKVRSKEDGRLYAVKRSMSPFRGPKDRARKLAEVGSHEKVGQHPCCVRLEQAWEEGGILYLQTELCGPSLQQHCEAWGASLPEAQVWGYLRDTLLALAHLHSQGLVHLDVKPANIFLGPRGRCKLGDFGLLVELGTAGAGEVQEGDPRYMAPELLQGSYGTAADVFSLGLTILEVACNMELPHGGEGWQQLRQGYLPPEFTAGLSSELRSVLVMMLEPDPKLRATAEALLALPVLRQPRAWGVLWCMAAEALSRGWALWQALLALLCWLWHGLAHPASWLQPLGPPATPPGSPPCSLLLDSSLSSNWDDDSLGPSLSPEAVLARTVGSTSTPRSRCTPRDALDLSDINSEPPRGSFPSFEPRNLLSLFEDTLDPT
- TEST DESCRIPTION: Myt1 kinase binding assay (LanthaScreen Eu Kinase Binding Assay)
- REPORTED CONDITIONS: 3 nM tracer 178, 2.5 nM PMYT-1, 1 nM Eu-labeled antibody; read-out: Myt1 kinase Binding IC50
VALUE TYPE: IC50

# COMPOUND, VALUE TYPE, RESULT VALUE
measured = [
    ("C=CCn1c(=O)c2cnc(Nc3ccc4nn(C(C)(C)C)cc4c3)nc2n1-c1cccc(OC2CCN(C)CC2)n1 [Compound 396]", "IC50", "< 20 nM"),
    ("C=CCn1c(=O)c2cnc(Nc3ccc4nccnc4c3)nc2n1-c1cccc(OC2CCN(C)CC2)n1 [Compound 241]", "IC50", "< 20 nM"),
    ("[2H]C([2H])([2H])c1cccc(Nc2ncc3c(=O)n(CC=C)n(-c4cccc(OC5CCNCC5)n4)c3n2)c1 [Compound 334]", "IC50", "20 to 100 nM"),
    ("[2H]C([2H])([2H])N1CCC(Oc2cccc(-n3c4nc(Nc5ccc6c(cnn6C(C)C)c5)ncc4c(=O)n3CC=C)n2)CC1 [Compound 354]", "IC50", "< 20 nM"),
    ("C=CCn1c(=O)c2cnc(Nc3ccc(OCC(F)(F)F)cc3)nc2n1-c1cccc(OC2CCN(C)CC2)n1 [Compound 291]", "IC50", "20 to 100 nM"),
]

Fill in IC50 for record C=CCn1c(=O)c2cnc(Nc3ccc(OCC(F)(F)F)cc3)nc2n1-c1cccc(NC2CCN(C)CC2)n1 [Compound 139]
100 to 500 nM

Fill in IC50 for record C=CCn1c(=O)c2cnc(Nc3ccc(Cl)cc3)nc2n1-c1cccc(OC2CCCNC2)n1 (stereo in doubt) [Compound 159]
20 to 100 nM

Fill in IC50 for record C=CCn1c(=O)c2cnc(Nc3ccc4c(c3)ncn4C(C)C)nc2n1-c1cccc(OC2CCN(C)CC2)n1 [Compound 400]
< 20 nM

Fill in IC50 for record C=CCn1c(=O)c2cnc(Nc3ccc4ncnn4c3)nc2n1-c1cccc(OC2CCN(C)CC2)n1 [Compound 249]
20 to 100 nM

Fill in IC50 for record C=CCn1c(=O)c2cnc(Nc3ccc4c(cnn4CC(C)C)c3)nc2n1-c1cccc(OC2CCN(C)CC2)n1 [Compound 394]
< 20 nM

Origin of values: patent US20260364080A1
